Cited source: ChEMBL document CHEMBL1140116

biological target: UniProtKB P13569; test: Corrector activity at human CFTR deltaF508 mutant expressed in FRT cells assessed as iodide influx at 25 uM; type: cell-based
Sequence (P13569 whole entry, looked up): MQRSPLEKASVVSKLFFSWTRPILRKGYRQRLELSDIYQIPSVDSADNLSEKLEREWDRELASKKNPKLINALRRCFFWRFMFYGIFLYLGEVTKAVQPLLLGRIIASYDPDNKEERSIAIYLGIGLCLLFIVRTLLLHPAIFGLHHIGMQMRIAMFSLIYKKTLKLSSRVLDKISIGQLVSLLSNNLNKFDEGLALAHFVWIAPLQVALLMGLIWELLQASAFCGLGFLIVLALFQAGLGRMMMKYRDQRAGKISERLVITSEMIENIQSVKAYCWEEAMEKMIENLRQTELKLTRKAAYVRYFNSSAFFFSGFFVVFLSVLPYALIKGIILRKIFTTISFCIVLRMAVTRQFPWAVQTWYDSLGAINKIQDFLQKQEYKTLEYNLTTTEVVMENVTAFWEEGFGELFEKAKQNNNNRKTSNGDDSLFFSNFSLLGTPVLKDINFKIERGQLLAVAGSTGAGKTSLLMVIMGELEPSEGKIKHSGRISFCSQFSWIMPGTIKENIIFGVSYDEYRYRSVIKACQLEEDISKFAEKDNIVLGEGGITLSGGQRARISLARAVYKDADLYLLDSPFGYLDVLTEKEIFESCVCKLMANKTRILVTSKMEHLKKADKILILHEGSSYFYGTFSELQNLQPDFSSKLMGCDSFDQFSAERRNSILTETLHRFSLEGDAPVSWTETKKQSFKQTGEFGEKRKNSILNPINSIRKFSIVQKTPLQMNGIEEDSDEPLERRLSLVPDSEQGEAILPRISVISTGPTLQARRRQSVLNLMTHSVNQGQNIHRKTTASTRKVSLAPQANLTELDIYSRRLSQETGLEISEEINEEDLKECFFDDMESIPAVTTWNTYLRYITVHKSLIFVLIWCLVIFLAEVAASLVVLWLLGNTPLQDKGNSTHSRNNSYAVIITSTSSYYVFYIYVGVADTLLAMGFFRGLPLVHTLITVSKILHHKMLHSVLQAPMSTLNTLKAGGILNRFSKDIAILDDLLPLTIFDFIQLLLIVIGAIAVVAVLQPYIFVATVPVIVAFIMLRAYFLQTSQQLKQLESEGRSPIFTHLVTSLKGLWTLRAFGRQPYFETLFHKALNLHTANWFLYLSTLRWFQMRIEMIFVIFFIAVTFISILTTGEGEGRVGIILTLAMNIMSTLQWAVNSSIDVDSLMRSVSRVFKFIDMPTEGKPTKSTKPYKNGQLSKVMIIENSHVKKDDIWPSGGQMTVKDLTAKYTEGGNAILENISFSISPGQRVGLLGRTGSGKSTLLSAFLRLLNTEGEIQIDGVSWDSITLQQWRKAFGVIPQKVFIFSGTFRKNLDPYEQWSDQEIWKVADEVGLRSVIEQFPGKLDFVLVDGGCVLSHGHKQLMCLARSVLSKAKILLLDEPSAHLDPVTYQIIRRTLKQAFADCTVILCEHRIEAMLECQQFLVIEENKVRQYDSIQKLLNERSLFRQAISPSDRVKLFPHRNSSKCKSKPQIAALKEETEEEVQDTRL
Activity calls are given as the source filed them. No cut-off for these calls is given here.
API: response.call in yes (1) (active), no (0) (inactive)

The following compounds have reported results that may help.
In [3]: df
Out[3]:
                                        smi  category_label
0  COc1ccc(Cl)cc1Nc1nc(-c2cccc(NC(=O)C(C)(C)C)c2)c(C)s1          no (0)
1  COc1ccc(Cl)cc1Nc1nc(-c2cccc(NC(=O)C(C)(C)C)c2)cs1          no (0)
2  COc1ccc(Cl)cc1Nc1nc2c(s1)CCCc1nc(NC(=O)C(C)(C)C)sc1-2         yes (1)
3  COc1ccc(Cl)cc1Nc1nc(-c2cnc(NC(=O)C(C)(C)C)s2)cs1         yes (1)
4  COc1ccc(Cl)cc1Nc1nc(C)c(-c2csc(NC(=O)C(C)(C)C)n2)s1          no (0)

Read the next record carefully.
Just curious, what result did COc1ccc(Cl)cc1Nc1nc(-c2sc(NC(=O)C(C)(C)C)nc2C)cs1 get here?
yes (1)
